molecular target: human recombinant adrenergic α2A receptor (Homo sapiens, UniProt P08913); construct: expressed in transfected cells; host or cells: insect Sf9 cells; test: Adrenergic α2A radioligand binding ([3H]MK-912); settings: percent inhibition of specific binding; compound at 1 μM; read-out: Inhibition of ligand binding, Adrenergic α2A
Sequence (P08913 whole entry): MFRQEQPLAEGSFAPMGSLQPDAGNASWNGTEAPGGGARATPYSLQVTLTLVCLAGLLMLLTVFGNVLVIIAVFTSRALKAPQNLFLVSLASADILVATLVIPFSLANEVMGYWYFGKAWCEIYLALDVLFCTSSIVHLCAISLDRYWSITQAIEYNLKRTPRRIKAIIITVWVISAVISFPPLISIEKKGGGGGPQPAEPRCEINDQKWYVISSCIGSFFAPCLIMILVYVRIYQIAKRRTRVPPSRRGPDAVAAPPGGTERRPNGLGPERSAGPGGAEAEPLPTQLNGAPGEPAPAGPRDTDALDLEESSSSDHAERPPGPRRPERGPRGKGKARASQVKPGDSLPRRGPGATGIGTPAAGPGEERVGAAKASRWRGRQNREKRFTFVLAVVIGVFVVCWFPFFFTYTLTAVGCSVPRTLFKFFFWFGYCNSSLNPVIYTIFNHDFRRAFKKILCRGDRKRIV
READOUT: inhibition at 1 µM (%)
Please respond with the number in % and leave the unit unwritten.

Challenge: For `COc1ccc(/C(C)=C/n2c3c(c4cc(Cl)ccc42)CN(C)CC3)cc1F` , what is its reported inhibition at 1 µM?
Response given: 94

Challenge: So what does the record say about inhibition at 1 µM for Cc1ccc2c(c1)c1c(n2CC(C)(O)c2cccnc2)CCN(C)C1 (centres unmarked) ?
Response given: 81

Challenge: I'd like to know its inhibition at 1 µM. The compound in question is `CN1CCc2c(c3cc(Cl)ccc3n2C/C=C/c2ccc(F)cc2)C1`
Response given: 87

Challenge: Which value of inhibition at 1 µM has been reported for Cc1ccc(C(O)Cn2c3c(c4ccccc42)CN(C)CC3)cc1 (racemic) in the records?
Response given: 93

Challenge: Name the reported inhibition at 1 µM value associated with the compound Cc1ccc2c(c1)c1c(n2CC(O)c2ccncc2)CCN(C)C1 (centres unmarked)
Response given: 84
